- ASSAY_INFO: Mouse pharmacokinetic studies: plasma and tissue levels by radioimmunoassay
- Format: in vivo, female DBA2 mice
- ASSAY_CONTEXT: female, DBA2, mouse, plasma, ip; single i.p. 10 mg kg-1, day 1
MEASURED_ENDPOINT: concentration at 1 day (nM)
Give the value in nM but do not write nM after it.

Reported concentration at 1 day for Cc1nc2ccc(CN(C)c3ccc(C(=O)N[C@@H](CCC(=O)O)C(=O)O)s3)cc2c(=O)[nH]1 was 7.18

---

- ASSAY_INFO: Mouse pharmacokinetic studies: plasma and tissue levels by radioimmunoassay
- Assay type: in vivo, female DBA2 mice
- ASSAY_CONTEXT: female, DBA2, mouse, plasma, ip; single i.p. 100 mg kg-1, day 1
- Excerpt: British Joumal of Cancer (1998) 77(2), 221-226 ? […] Tomudex is now available for the treat- ment of advanced colorectal cancer in several countries. […] The limit of detection of this assay for plasma was 0.2 g1M when a solid-phase extraction was used. […] Separation of polyglutamated metabo- lites by HPLC was followed by quantitation in fractions using radiochemical analysis (Jackman et al, 1991c; Gibson et al, 1993) or by measuring inhibition of TS (Sikora et al, 1988). […]
MEASURED_ENDPOINT: concentration at 1 day

Reported concentration at 1 day for Cc1nc2ccc(CN(C)c3ccc(C(=O)N[C@@H](CCC(=O)O)C(=O)O)s3)cc2c(=O)[nH]1 [ZD1694] was 30.7 nM

---

- ASSAY_INFO: Mouse pharmacokinetic studies: plasma and tissue levels by radioimmunoassay
- Type: in vivo, female DBA2 mice
- ASSAY_CONTEXT: female, DBA2, mouse, plasma, ip; single i.p. 100 mg kg-1, day 4
MEASURED_ENDPOINT: concentration at 4 day (nM)
Give the value in nM but do not write nM after it.

Reported concentration at 4 day for Cc1nc2ccc(CN(C)c3ccc(C(=O)N[C@@H](CCC(=O)O)C(=O)O)s3)cc2c(=O)[nH]1 was 2.39

---

- ASSAY_INFO: Mouse pharmacokinetic studies: plasma and tissue levels by radioimmunoassay
- Assay type: in vivo, female DBA2 mice
- ASSAY_CONTEXT: female, mouse, plasma, ip; DBA2 mice, 5 mg kg-1 i.p., non-compartmental model; read-out: plasma elimination phase (half-life) (converted)
MEASURED_ENDPOINT: half-life

Reported half-life for Cc1nc2ccc(CN(C)c3ccc(C(=O)N[C@@H](CCC(=O)O)C(=O)O)s3)cc2c(=O)[nH]1 was ~2.7 h
